Numbers sourced from BindingDB's records for doi:10.1016/j.ejmech.2020.112062.

# ASSAY_TARGET: Transcription factor p65 (Human)
# Sequence (Q04206 whole entry): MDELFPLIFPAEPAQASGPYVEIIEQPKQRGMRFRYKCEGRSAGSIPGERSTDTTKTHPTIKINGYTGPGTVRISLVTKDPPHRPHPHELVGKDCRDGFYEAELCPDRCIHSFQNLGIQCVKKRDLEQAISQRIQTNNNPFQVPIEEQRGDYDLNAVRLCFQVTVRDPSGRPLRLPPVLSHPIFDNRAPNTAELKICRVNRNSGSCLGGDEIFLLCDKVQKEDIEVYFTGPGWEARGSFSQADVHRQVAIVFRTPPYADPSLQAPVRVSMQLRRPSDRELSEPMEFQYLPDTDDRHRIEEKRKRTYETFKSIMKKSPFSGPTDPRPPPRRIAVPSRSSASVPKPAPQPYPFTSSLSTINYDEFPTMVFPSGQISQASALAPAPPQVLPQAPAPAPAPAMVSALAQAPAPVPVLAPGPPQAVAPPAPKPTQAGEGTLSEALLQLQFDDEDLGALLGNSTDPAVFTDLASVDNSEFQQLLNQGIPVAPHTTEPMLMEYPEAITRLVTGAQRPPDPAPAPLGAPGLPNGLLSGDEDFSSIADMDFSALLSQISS
# ASSAY_REMARKS: Inhibition of NFkappaB p65 in human RPMI-8226 cells incubated for 2 hrs by ELISA
Consider the following compounds; for each one, report its IC50.
Kindly provide the numeric value in nM only, without the unit symbol.

// lookup IC50 for COc1cc2ncnc(Nc3ccc(F)c(Cl)c3)c2cc1OCCCN1CCOCC1
55

Give the measured IC50 of COc1ccc(/C=C/C(=O)c2nnn(-c3ccc(Cl)cc3)c2C)cc1OC .
134
